Measured values drawn from the SangsterLogP compilation for this set.

measured.attribute: logP
One number for each entry.

Could you share which logP value was measured for Cc1ccc(NC(=O)c2[nH]nc(C)c2[N+](=O)[O-])cc1 ? 2.34
